# System: NQO1 activation in BEAS-2B cells
# Test details: BEAS-2B cellular MTT assay of NQO1 activation, 0% HSA
# Type: cell-based
# Condition parameters: Homo sapiens, serum free, read-out: BEAS EC50 (nM) serum free
Binary label based on EC50 with cut-off 100 nM: below gives 1 (yes), not below gives 0 (no).

                                    molecule                       measured_on      cat
 0  Cc1cc2ccc1C(=O)N1CCc3ccc(cc3C1)[C@H]([C@@H](C)C(=O)O)c1ccc3c(nnn3CCCOCCO2)c1C  NQO1 activation in BEAS-2B cells  1 (yes)
 1  Cc1c2cnc3c1nnn3CCCCCc1cc(F)c(c(F)c1)C(=O)N1CCc3ccc(cc3C1)[C@@H]2CC(=O)O  NQO1 activation in BEAS-2B cells  1 (yes)
 2  O=C(O)CC1c2ccc3c(c2)CN(CC3)C(=O)c2ccc(cc2F)OCCCCCCn2nnc3cc1ccc32 (stereo not shown)  NQO1 activation in BEAS-2B cells   0 (no)
 3  Cc1cc2ccc1C(=O)N1CCc3ccc(cc3C1)C(CC(=O)O)c1ccc3c(c1)nnn3CCCCCCO2 (stereo not shown)  NQO1 activation in BEAS-2B cells  1 (yes)
 4  Cc1c2ccc3c1nnn3CCCCC(F)(F)Oc1ccc(cc1)C(=O)N1CCc3ccc(cc3C1)C2CC(=O)O (stereo not shown)  NQO1 activation in BEAS-2B cells  1 (yes)
 5  Cc1c2ccc3c1nnn3CCCCCCn1cc(c3ccccc31)C(=O)N1CCc3ccc(cc3C1)C2CC(=O)O (stereo not shown)  NQO1 activation in BEAS-2B cells   0 (no)
 6  O=C(O)CC1c2ccc3c(c2)CN(CC3)C(=O)c2ccc(cc2)CCCCCCn2nnc3cc1ccc32 (stereo not shown)  NQO1 activation in BEAS-2B cells   0 (no)
 7  Cn1c2cc3cc(ccc31)OCCCCCCn1nnc3cc(ccc31)C(CC(=O)O)c1ccc3c(c1)CN(CC3)C2=O (stereo not shown)  NQO1 activation in BEAS-2B cells   0 (no)
 8  Cc1cc2ccc1C(=O)N1CCc3ccc(cc3C1)C(CC(=O)O)c1cnc(nc1C)OCCCCO2 (stereo not shown)  NQO1 activation in BEAS-2B cells   0 (no)
 9  C[C@@H](C(=O)O)[C@@H]1c2ccc(nc2)OCCCCCc2cc(F)c(c(F)c2)C(=O)N2CCc3ccc1cc3C2  NQO1 activation in BEAS-2B cells  1 (yes)
10  CC(C)(C(=O)O)C1c2ccc3c(c2)CN(CC3)C(=O)c2ccc(cc2)OCCCCCCn2nnc3cc1ccc32 (stereo not shown)  NQO1 activation in BEAS-2B cells  1 (yes)
11  O=C(O)CC1c2ccc3c(c2)CN(CC3)C(=O)c2ccc(cc2F)CCCCCCn2nnc3cc1ccc32 (stereo not shown)  NQO1 activation in BEAS-2B cells   0 (no)
12  Cc1c2ccc3c1nnn3CCCCCOc1cc(F)c(c(F)c1)C(=O)N1CCc3ccc(cc3C1)C2CC(=O)O (stereo not shown)  NQO1 activation in BEAS-2B cells  1 (yes)
13  Cc1c2ccc3c1nnn3CCCOCCOc1cc(F)c(c(F)c1)C(=O)N1CCc3ccc(cc3C1)[C@@H]2[C@H](C)C(=O)O  NQO1 activation in BEAS-2B cells   0 (no)
14  O=C(O)CC1c2ccc3c(c2)CN(CC3)C(=O)c2ccc(c3ccccc23)OCCCCCn2nnc3cc1ccc32 (stereo not shown)  NQO1 activation in BEAS-2B cells   0 (no)
15  Cc1cc2ncc1C(CC(=O)O)c1ccc3c(c1)CN(CC3)C(=O)c1c(F)cc(cc1F)CCCCCO2 (stereo not shown)  NQO1 activation in BEAS-2B cells  1 (yes)
16  Cc1c2ccc3c1nnn3CCCCCCOc1cnc(cn1)C(=O)N1CCc3ccc(cc3C1)C2CC(=O)O (stereo not shown)  NQO1 activation in BEAS-2B cells   0 (no)
17  Cc1cc2ccc1OCCCCCCn1nnc3c(C)c(ccc31)C(CC(=O)O)c1ccc3c(c1)CN(CC3)C2=O (stereo not shown)  NQO1 activation in BEAS-2B cells   0 (no)
18  Cc1c2ccc3c1nnn3CCCCCCc1ccc(cc1)C(=O)N1CCc3ccc(cc3C1)[C@H]2[C@H](C)C(=O)O  NQO1 activation in BEAS-2B cells  1 (yes)
19  O=C(O)CC1c2ccc3c(c2)CN(CC3)C(=O)c2ccc(cc2F)CCCCCn2nnc3cc1ccc32 (stereo not shown)  NQO1 activation in BEAS-2B cells  1 (yes)
20  Cc1cc2ccc1C(=O)N1CCc3ccc(cc3C1)C(CC(=O)O)c1ccc3c(nnn3CCCCCO2)c1C (stereo not shown)  NQO1 activation in BEAS-2B cells  1 (yes)
21  Cc1c2ccc3c1nnn3CCCCCCOc1ccc(cc1F)C(=O)N1CCc3ccc(cc3C1)C2CC(=O)O (stereo not shown)  NQO1 activation in BEAS-2B cells  1 (yes)
22  Cc1c2ccc3c1nnn3CCCCCOc1ccc(c(F)c1)C(=O)N1CCc3ccc(cc3C1)[C@@H]2CC(=O)O  NQO1 activation in BEAS-2B cells  1 (yes)
23  Cc1c2ccc3c1nnn3CCCCCCc1ccc3nc(n(C)c3c1)C(=O)N1CCc3ccc(cc3C1)C2CC(=O)O (stereo not shown)  NQO1 activation in BEAS-2B cells  1 (yes)
24  Cc1c2ccc3c1nnn3CCOCCCOc1ccc(c(F)c1)C(=O)N1CCc3ccc(cc3C1)C2CC(=O)O (stereo not shown)  NQO1 activation in BEAS-2B cells  1 (yes)
25  C[C@@H](C(=O)O)[C@H]1c2ccc3c(c2)CN(CC3)C(=O)c2ccc(cc2)OCCCCCCn2nnc3cc1ccc32  NQO1 activation in BEAS-2B cells  1 (yes)
26  O=C(O)CC1c2ccc(nc2)OCCCCCOc2ccc(c(F)c2)C(=O)N2CCc3ccc1cc3C2 (stereo not shown)  NQO1 activation in BEAS-2B cells   0 (no)
